tgt: 72 kDa type IV collagenase (Homo sapiens)
Sequence (P08253 whole entry): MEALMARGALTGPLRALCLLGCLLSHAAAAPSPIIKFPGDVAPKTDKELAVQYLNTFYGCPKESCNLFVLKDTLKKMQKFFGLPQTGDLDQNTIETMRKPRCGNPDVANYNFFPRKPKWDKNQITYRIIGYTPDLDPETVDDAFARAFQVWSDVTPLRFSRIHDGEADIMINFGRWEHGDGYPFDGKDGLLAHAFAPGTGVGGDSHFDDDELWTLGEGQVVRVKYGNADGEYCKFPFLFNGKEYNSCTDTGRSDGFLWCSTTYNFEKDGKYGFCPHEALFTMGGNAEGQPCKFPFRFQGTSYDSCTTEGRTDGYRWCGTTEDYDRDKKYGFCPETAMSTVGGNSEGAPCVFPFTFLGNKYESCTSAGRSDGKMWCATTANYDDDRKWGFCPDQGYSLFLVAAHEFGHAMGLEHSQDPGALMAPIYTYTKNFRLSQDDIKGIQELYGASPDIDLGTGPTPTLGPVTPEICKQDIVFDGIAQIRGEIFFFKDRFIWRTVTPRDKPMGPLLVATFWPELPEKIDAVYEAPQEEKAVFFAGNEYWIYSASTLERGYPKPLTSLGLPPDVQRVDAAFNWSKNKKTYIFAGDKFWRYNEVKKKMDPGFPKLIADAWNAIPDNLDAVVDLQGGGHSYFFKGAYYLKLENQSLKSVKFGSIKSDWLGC
experiment-description: Dose Response validation of uHTS RPN11 inhibitor hits using a MMP-2 Fluorescence assay.
Assay type: functional
Activity calls are given as the source filed them.
Respond with a class label; see active, inactive

INPUT: Hey, what did the test say about COc1cc(Cl)cc(/C=N\NC(=O)c2ccc3c(c2)OCO3)c1O ?
OUTPUT: inactive

INPUT: Check Cc1ccc(C(=O)Nc2ccc(C(=O)N/N=C/c3cccnc3)cc2)cc1 too.
OUTPUT: inactive

INPUT: Check O=C(O)CCCN1C(=O)/C(=C\c2ccc(-c3nc4ccccc4s3)o2)SC1=S too.
OUTPUT: inactive

INPUT: Check COc1ccc(C#Cc2ccc3c(c2)O[C@@H](CN(C)C(=O)Nc2cccc(OC)c2)[C@H](C)CN([C@@H](C)CO)S3(=O)=O)cc1 too.
OUTPUT: inactive

INPUT: Check COC(=O)c1ccccc1NC(=O)CCS(=O)(=O)c1ccc(Br)cc1 too.
OUTPUT: active

INPUT: Check N=C1/C(=C\c2ccc(-c3cccc(C(=O)O)c3)o2)C(=O)N=C2SC=C(c3ccccc3)N12 too.
OUTPUT: active

----------
For each of the compounds below, state its IC50.
experiment-description: HEK-293T viability loss after treatment – luminescence, T-cell screen hits, cytotoxicity control for TCR NF-kB inhibitor project, dose response (AID 489026);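 note: cells exposed to compound about 14 hours before the viability readout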
Format: functional, cell-based
Activity calls are given as the source filed them.

INPUT: # input compound: C/C(=N\NC(=O)c1cc(C)nc2ccccc12)c1ccccn1 ; wanted: its IC50
OUTPUT: > 80 µM (inactive)

INPUT: Check Cc1cc(NC(=O)CSc2nc3ccccc3c(=O)n2C2CCCC2)no1 too.
OUTPUT: > 80 µM (inactive)

INPUT: Check O=C(N[C@@H](Cc1ccccc1)C(=O)CCl)OCc1ccccc1 too.
OUTPUT: > 80 µM (inactive)

INPUT: Check CN(C)c1ccc(-c2nn3c(-c4ccccc4Cl)nnc3s2)cc1 too.
OUTPUT: > 80 µM (inactive)

----------
tgt: High affinity choline transporter 1 (Homo sapiens, UniProt Q9GZV3)
Sequence (Q9GZV3 whole entry): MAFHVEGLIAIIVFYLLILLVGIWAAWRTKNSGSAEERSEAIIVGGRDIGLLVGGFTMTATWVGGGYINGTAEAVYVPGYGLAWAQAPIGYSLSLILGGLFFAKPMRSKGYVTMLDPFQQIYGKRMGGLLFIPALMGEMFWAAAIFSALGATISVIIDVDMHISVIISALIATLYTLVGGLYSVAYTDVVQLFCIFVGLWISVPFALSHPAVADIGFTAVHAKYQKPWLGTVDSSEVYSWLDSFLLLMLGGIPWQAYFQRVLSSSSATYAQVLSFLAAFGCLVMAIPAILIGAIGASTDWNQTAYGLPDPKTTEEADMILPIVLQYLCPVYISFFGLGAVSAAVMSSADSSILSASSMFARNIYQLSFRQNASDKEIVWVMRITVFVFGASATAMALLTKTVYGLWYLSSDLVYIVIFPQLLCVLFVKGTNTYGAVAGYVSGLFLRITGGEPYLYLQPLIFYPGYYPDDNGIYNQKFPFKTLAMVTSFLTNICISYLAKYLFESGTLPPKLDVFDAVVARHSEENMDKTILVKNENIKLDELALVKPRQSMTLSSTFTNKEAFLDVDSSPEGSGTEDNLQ
experiment-description: human choline transporter blockers, potency – cell-based, 5-point CRC, membrane potential dye, dose response (AID 504840)
Assay type: functional
Calls of active or inactive are those of the source.
For each of the molecules below, state its IC50.

INPUT: # input molecule: CCCn1c2ccccc2c2cnn(CC(=O)NCCN(CC)CC)c(=O)c21 ; wanted: its IC50
OUTPUT: 5.7 µM (active)

INPUT: Check O=C(Nc1ccc(F)c(Cl)c1)C1CCN(S(=O)(=O)c2cccnc2)CC1 too.
OUTPUT: 13.2 µM (active)

INPUT: Check Cc1ccc(C(=O)/C=C/C(=O)O)cc1 too.
OUTPUT: 10.5 µM (active)

INPUT: Check O=C1NC(=O)N(c2ccc(Cl)cc2)C(=O)/C1=C/c1coc2ccc(O)cc2c1=O too.
OUTPUT: 12.7 µM (active)

INPUT: Check CCCn1c2ccccc2c2cnn(CC(=O)NCCN(C)C)c(=O)c21 too.
OUTPUT: 11.5 µM (active)

INPUT: Check CCC1(C)Cc2c(sc3nnn(CC(=O)Nc4ccccc4)c(=O)c23)CO1 (stereo unspecified) too.
OUTPUT: 11.5 µM (active)

INPUT: Check CCc1nnc(NS(=O)(=O)c2ccc(NC(=O)/C=C/c3ccccc3Cl)cc2)s1 too.
OUTPUT: 13.8 µM (active)

INPUT: Check CCN(CC)c1ccc(NC(=O)CNCc2ccccc2Cl)c(C)c1 too.
OUTPUT: 20.9 µM (active)

INPUT: Check Cc1cccc(N2CCN(C(=O)Cc3c(C(=O)O)[nH]c4ccc(Cl)cc34)CC2)c1C too.
OUTPUT: 10.8 µM (active)

INPUT: Check COc1ccc(C(=O)N(C)Cc2ccc(C)o2)cc1OC1CCN(C(C)C)CC1 too.
OUTPUT: 12.6 µM (active)

INPUT: Check CN(C)c1ccc(C(=O)c2ccc(O)cc2O)cc1 too.
OUTPUT: 11 µM (active)
